Give measured cytotoxicity at 10 µM for each item. Keep answers brief.
- Experiment Summary: Toxicity liver stage against HepG2, at 10uM
- Assay type: cell-based
- Parameters: test concentration 10 uM, cell line HepG2-A16-CD81EGFP
- Experimental Parameters: human, HepG2-A16-CD81EGFP cells; read-out: INHIBITION
Give bare numbers, in %.

Below, 8 molecules whose answers are already recorded.
* CC1CC(=O)c2cc(C(=O)N3CCc4ccccc43)c(=O)[nH]c2C1 (configuration not stated) | -5.67
* CC(CCNC(=O)N(C)CC1CCOCC1)N1CCCCC1 (configuration not stated) | 8.63
* CNc1ccc(CC2CCCN(C(=O)c3cnco3)C2)nn1 (configuration not stated) | -8.55
* Cc1oncc1C(=O)N1CC[C@H]2[C@H]1CCN2Cc1ccccn1 | 6.15
* O=C(NCCNC1CCN(c2nccs2)CC1)c1cccs1 | 5.73
* Cn1ccnc1CN1CCN(CC(=O)NCc2cccs2)CC1 | -8.25
* CN(C)c1ncccc1CNS(=O)(=O)c1c(F)cccc1F | -9.91
* c1cncc(N2CCC3(CCCN(c4ccncc4)C3)CC2)c1 | 1.84

Items follow; give cytotoxicity at 10 µM for each.
1. CCOc1ncccc1CNC(=O)N1CCC(n2cncn2)CC1
2. N#CCC1CC(c2ccc(F)cc2)=NO1 (configuration not stated)
3. CN(Cc1ccsc1)C(=O)c1cccc(S(=O)(=O)NCC2CCCO2)c1 (configuration not stated)
4. O=C(CCN1C(=O)CCC1=O)Nc1cnn(-c2ccccc2Cl)c1

**A:**
1. -1.26
2. -2.37
3. -13.8
4. -9.56

FYI, the data here is from ChEMBL document CHEMBL4513216.
